# Experimental Protocol: Cytotoxicity against human K562 cells assessed as reduction in cell viability at 50 uM incubated for 48 hrs by celltox-green assay relative to control
# Assay type: cell-based
# Cond: read-out: INH
Property: cytotoxicity at 48 h, 50 µM (%)

Compound Smiles | Measured Number
CCN(CC)CCNC(=O)c1c(C)[nH]c(/C=C2\C(=O)Nc3ccc(CCNC(C)=O)cc32)c1C | 42

====

# Experimental Protocol: Cytotoxicity against human K562 cells assessed as reduction in cell viability at 1.56 uM incubated for 72 hrs by MTS assay relative to control
# Format: cell-based
# Cond: read-out: INH

Compound Smiles | cytotoxicity at 72 h, 1.56 µM, %
CCN(CC)CCNC(=O)c1c(C)[nH]c(/C=C2\C(=O)Nc3cc(Cl)ccc32)c1C | 65
